testSummary: PET hydrolysis, aromatic products released after 48 h (umol product/mg enzyme); higher = more PET depolymerization activity
assaySetup: substrate: cryPow; 40 °C; pH 5.5

primarySequence	PET hydrolysis
AAGYERGPNPTSSALEATRGPFSVASTNVSSLSASGFGGGTIYYPTDTSQGTFGGVVIAPGYTASKSSMAWLAERLASHGFVVFNIDTITRSDQPDSRGRQILAAADHLAEESSSTVRRRLDASRIGVMGHSMGGGGTLAAADSRPSLKAAVPLTPWHLDKSWGNVRVPTMIIGAENDTIAAVGSHSEPFYNSLSAAPEKAYLELNGASHFAPNSDNDTIAKYGISWMKRFVDEDTRYDQFLCPAPGRSTTIEEYRSSCPHS [DP086]	< 3
AANPYERGPAPTDAVLEASRGPFATTSYSVSGLSVTGFGGGVVYYPTSTSEGTFGAIAISPGYTATWSSLSWLGPRIASHGFVVIGIETNTLLDQPDSRGRQLLAALDYLVQRSSVRGRIDAGRLAVAGHSMGGGGTLEAAAARPSLQAAVPLAPWNLDKTWSGVTVPTLIVGGESDSVAPVASHSVPFYNSIPASSEKAYLELNGASHFFPQSVNTPTAKQMVAWLKRFVDNDTRYEQFLCPGPSGLAIEEYRNTCPSS [TEP018]	< 3
ADNPYQRGPDPTVASVAATNGPFATAQLNVPSGNGFNGGTIYYPTDTSLGTWGAVAIVPGYTARFANEEAWMGPRLASFGFVVIGVETNSTTDWDTARGTQLLAALDYLTQKSSVRDRVDASRLAVIGHSMGGGGVVYAASQRPSLKAAIGLAPYAPSGNLSNVKVPMLIQGGQNDTVVTPSYLDGLYPTLPSSTPGAYVQYSGADHLFWTKANNIELRTQIPWLKIFLDNDTRYTQFMCPTLKDTASVAKYSAKCSLIPSAGSTTAPTTQPATSAPATTSPTTQPPSQPG [TEP083]	3
ADNPYQRGPDPTQSSVSASRGTFATAQVGVPAGNGFGGGVIYHPTDTSQGTFGAVAIVPGYTATWAAEGAWMGHWLASFGFVVIGIDTNNRNDWDTARGTQLLAALDYLTQRSSVRDRVDPSRTAVMGHSMGGGGAMYAALQRPSLKTAVGLAPFSPSQNLTTTRVPTMLLSGQNDTTTTPASIVNLYNGIPSSVEKAYLELTGAGHGFPTSNNSTMMRNVIPWLKIFVDSDTRYTQFLCPLSDSNGIRTYQNTCPLVPSPVPTTTSTTSSTSTTTTSTTTTTTTSVPVGACSATYRTTNAWSGGYQGEVTVAAGDSAVNGWTVRWTLDSGQTISQVWNGTLSATGSAVSVRNASYNGSLRPGTSTTFGFIAGGAPSTPVLSCTSP [DP072]	< 3
AENPYERGPAPTTASIEALRGPFATAETTVSSLSVRGFGGGTIHYPTSTAEGTFGAVAVAPGYTASQSSLSWLGPRLASQGFVVFVIDTNSRYDQPASRGDQLLAALDYLTTSSSVRGRIDASRLGVMGHSMGGGGALEATKDRPSLQASIPLTPWNTTKTWSTVRTPTLVVGAEDDSVAPVRTHAEPFYEGLPSTLDKAYLELAGASHFAPNSSNTTIAKYSIAWLKRFVDDDTRYEQFLCPAPRGTAISEYRDTCPHP [TEP110]	< 3
QSSNPYQRGPAPTERSIEASRGPFAVAQTTVSRLSATGFGGGTIYYPTDTSQGRFGGVAISPGFTALQSSIAWLGPRIASQGFIVFTIDTITTLDQPAQRGDQLLAALDYLVQRSPAAVRDRLDPTRLAVMGHSMGGGGTLEAAKKRPSLKAAIPLTGWNLDTIWNDLRVPTLVVGAQLDLIAPILTFSLPFYNTIPASTEKVYLELAGASHFAPNLPDTNIAKYSIAWLKRWVDNDTRYTQFLCPGPRFELAISNYMSSCPM [DP056]	< 3
ADNPYERGPAPTNASIEAVRGPYAVSQATVSSLAVTGFGGGTIYYPTTTSDGTFGAVAISPGYTGTQSSIAWLGPRLASQGFVVFTIDTNTTLDQPDSRGRQLLAALDYLTRVSPLRTRVDSTRLGVMGHSMGGGGSLEAAKSRPSLQAAIPLTPWNLDKTWPEIQTPTLIVGADGDSIAPVSSHAEPFYENLPSSLDRAYLELNGASHFAPNSSNTTIAKYSISWLKRFIDNDTRYEQFLCPLPRPSLTIEEYRGNCPHQS [TEP188]	< 3
DQGPPPTIASLSVDGAYAVMTYTDIPDVPEFGDATVYYPVDTAMPIGGVAISPGWTELQRHIEWWGPRLASHGYAVLILDTNDAMADQPEQRAEALIAAVRILRGENDRAGSPLSGRIDTEKMAIMGHSMGGGGVLIAANNYPAEIQAAIPFTPWQPAGDFSQVVAPTLVMAGSADRVASVSDHAWPHYQSIPESTIKVFLEIDGGSHFIADTSRGEDLGTIGRYGIAWLKLYLDGDERYRGFIYGDEAASDSEKFSRYVTSP [TEP021]	< 3
DEIGQAPTASNITGNGSFATTSASISSTVAGFGGGRVYYPTATGTYPVIAISPGFTATWSSLSWIGPRLSSWGFVVVGIETNSIYDQPGSRGSQLLAALNWAVSSSPTAVRSRVDGSRRGVAGHSMGGGGTLEALAADTSGLVKAGVPLAPWNSDKTWNNVSEPVLIVGGQSDTIAPVSSHSVPFYNTLAGPKTYVELTGASHFFPQSSNATTSRALVSWFKRWLNQDSRFTPFTCGFSGAAVSSFRTNAC [ESM093]	25
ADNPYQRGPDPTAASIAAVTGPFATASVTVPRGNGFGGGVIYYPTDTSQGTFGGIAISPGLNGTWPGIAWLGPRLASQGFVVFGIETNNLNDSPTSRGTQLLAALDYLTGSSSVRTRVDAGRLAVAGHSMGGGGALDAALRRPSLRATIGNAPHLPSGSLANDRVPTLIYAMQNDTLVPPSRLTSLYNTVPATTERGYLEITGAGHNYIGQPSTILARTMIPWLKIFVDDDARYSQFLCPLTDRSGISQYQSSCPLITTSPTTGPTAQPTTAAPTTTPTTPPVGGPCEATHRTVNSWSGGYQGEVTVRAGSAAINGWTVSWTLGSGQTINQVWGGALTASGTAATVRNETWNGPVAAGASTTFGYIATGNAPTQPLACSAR [ESM060]	11.5
